- assayed_system: T1, RecJ (native wild-type) (Escherichia coli, UniProt P21893 1-577)
- T1 sequence: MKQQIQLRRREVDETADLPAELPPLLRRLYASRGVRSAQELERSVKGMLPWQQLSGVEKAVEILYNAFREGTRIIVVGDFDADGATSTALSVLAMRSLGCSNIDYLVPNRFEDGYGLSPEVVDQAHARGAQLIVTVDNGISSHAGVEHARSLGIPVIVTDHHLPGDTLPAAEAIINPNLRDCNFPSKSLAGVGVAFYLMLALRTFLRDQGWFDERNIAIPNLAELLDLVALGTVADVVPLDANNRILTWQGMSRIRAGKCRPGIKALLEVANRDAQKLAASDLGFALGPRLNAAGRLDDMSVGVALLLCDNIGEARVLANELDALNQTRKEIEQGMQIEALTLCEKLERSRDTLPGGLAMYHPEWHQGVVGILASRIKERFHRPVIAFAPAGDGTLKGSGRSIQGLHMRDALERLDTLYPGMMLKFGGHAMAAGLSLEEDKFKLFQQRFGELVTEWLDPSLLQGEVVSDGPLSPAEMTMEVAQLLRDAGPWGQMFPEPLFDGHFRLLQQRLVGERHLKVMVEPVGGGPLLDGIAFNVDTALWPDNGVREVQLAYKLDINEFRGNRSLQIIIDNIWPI
- test_protocol: EMSA

{"binder": "A 7 nt 5' tail (dsDNA, 5' phosphate on A from labeling) DNA 1: GCCCAGGTGGCAGGCCCTAGGGTGGAGGGGAGGCCGCCGGCATGGGGACGCGATGGGCGGAGGCG DNA 2: CGCCTCCGCCCATCGCGTCCCCATGCCGGCGGCCTCCCCTCCACCCTAGGGCCTGCCA", "binding result": "binds"}
{"binder": "A 8 nt 5' tail (dsDNA, 5' phosphate on A from labeling) DNA 1: GCCCAGGTGGCAGGCCCTAGGGTGGAGGGGAGGCCGCCGGCATGGGGACGCGATGGGCGGAGGCG DNA 2: CGCCTCCGCCCATCGCGTCCCCATGCCGGCGGCCTCCCCTCCACCCTAGGGCCTGCC", "binding result": "binds"}
{"binder": "A 9 nt 5' tail (dsDNA, 5' phosphate on A from labeling) DNA 1: GCCCAGGTGGCAGGCCCTAGGGTGGAGGGGAGGCCGCCGGCATGGGGACGCGATGGGCGGAGGCG DNA 2: CGCCTCCGCCCATCGCGTCCCCATGCCGGCGGCCTCCCCTCCACCCTAGGGCCTGC", "binding result": "binds"}

The reported numbers originate from paper PMC1373692.
